Where do these numbers come from? They come from paper PMC2841500.

measurement target: T1, Alba1 (Sso10b) (Sulfolobus solfataricus, UniProt P60849 1-97)
T1 sequence: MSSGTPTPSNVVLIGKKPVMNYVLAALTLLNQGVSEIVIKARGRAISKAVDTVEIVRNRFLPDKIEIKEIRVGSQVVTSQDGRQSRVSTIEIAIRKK
experimental details: EMSA
reported metric: Kd (µM)
Value expressed in µM; do not type the unit.

Fill in the blank: the reported Kd of CCCGGCGUGCGGCCCG (ssRNA) [16 mer ssRNA] is ____.
0.92
